Assign selectivity index (SI = IC50(α-glucosidase)/IC50(α-amylase)) to each entry below.
Target: α-glucosidase type 1 from Saccharomyces cerevisiae (Saccharomyces cerevisiae, UniProt P53341)
Construct: purchased Merck Life Science (Pty) Ltd. (Sigma-Aldrich) G5003
Sequence (P53341 whole entry): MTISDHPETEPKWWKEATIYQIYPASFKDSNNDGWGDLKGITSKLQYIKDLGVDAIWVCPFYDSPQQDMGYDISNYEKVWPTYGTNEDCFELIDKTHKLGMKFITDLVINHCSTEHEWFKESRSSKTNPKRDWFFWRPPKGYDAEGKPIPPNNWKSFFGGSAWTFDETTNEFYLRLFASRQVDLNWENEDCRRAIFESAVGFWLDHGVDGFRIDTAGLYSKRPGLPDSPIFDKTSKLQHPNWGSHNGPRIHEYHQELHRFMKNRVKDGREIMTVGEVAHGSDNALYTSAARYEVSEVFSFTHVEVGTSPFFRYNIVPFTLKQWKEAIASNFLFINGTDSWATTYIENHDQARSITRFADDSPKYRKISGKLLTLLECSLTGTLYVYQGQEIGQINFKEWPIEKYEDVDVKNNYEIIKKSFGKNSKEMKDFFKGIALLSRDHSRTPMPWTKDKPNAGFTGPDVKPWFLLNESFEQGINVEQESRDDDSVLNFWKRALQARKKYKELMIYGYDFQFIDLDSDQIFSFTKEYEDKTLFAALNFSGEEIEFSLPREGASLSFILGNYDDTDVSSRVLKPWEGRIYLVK
Experiment: biochemical
Format: biochemical
Conditions: ratio of α-glucosidase to α-amylase IC50
Form field (numeric): enter value without unit.

Could you tell me which selectivity index (SI = IC50(α-glucosidase)/IC50(α-amylase)) is on file for COc1c(Br)c(O)c(C(=O)/C=C/c2ccccc2)c(OC)c1Br [2a] ? 1.99

Could you tell me which selectivity index (SI = IC50(α-glucosidase)/IC50(α-amylase)) is on file for COc1c(Br)c(O)c(C(=O)/C=C/c2ccc(F)cc2)c(OC)c1Br [2b] ? 1.12

Could you tell me which selectivity index (SI = IC50(α-glucosidase)/IC50(α-amylase)) is on file for COc1c(Br)c(O)c(C(=O)/C=C/c2ccc(Cl)cc2)c(OC)c1Br [2c] ? 0.68

Could you tell me which selectivity index (SI = IC50(α-glucosidase)/IC50(α-amylase)) is on file for COc1c(Br)c(OC)c2c(=O)cc(-c3ccc(C(C)C)cc3)oc2c1Br [3f] ? 0.2
